pIC50 values for the compounds below.
# target: 5-LO (Homo sapiens, UniProt P09917)
# Sequence (P09917 whole entry): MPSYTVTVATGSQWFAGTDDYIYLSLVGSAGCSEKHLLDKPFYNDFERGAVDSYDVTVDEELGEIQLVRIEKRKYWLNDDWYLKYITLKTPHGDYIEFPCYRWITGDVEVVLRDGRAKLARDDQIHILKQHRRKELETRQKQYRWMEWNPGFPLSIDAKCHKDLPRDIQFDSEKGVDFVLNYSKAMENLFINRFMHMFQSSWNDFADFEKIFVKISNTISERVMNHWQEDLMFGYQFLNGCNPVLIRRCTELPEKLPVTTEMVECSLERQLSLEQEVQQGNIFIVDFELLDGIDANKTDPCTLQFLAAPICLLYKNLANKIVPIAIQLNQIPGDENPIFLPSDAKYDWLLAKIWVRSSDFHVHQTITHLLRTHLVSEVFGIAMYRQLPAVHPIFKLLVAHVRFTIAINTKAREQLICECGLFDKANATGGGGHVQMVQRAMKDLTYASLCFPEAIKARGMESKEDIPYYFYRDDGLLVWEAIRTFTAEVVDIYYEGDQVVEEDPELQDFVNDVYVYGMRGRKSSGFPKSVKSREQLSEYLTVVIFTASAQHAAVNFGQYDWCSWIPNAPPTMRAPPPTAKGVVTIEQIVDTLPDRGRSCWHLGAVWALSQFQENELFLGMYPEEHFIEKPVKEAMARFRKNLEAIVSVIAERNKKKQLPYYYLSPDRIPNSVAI
# assay-protocol: Eicosanoid production from human whole blood (HWB/LTB4: ionophore induced LTB4)
# Type: cell-based
# Parameters: from tissue; host or cells: pooled human whole blood
# Procedure: Human whole blood was collected from healthy or asthmatic human donors in 10 ml heparinized tubes (Vacutainer tubes; Becton Dickenson, Franklin Lakes, N.J.). […] After 15 min incubation at 37° C. in a shallow water bath, the blood was centrifuged at 800 g for 10 minutes at 4° C., the supernatants collected, and leukotriene and prostaglandin levels measured by ELISA according to the manufacturer's directions (Cayman Chemical Company, Ann Arbor, Mich.). […]
Convention used: pIC50 is expressed as -log10 of the molar concentration.

Cn1nccc1-c1ccc(Sc2cccc(C3(C(N)=O)CCOCC3)c2)cc1 : 6.87

I'd like to know its pIC50. The compound in question is `Cn1nccc1-c1ccc(Sc2cccc(C3(C(N)=O)CCOCC3)c2)cc1F`
6.82
